Below are compounds with their IC50 as measured on Endochitinase B1 (Aspergillus fumigatus, UniProt Q873X9).
Enter your answer as a number in nM; do not include the unit.

Cn1cnc2c1c(=O)n(CCCn1c(=O)c3c(ncn3C)n(C)c1=O)c(=O)n2C | 200

Then this compound:
Enquiry: Returns the measured IC50 for the input compound. Input: Cn1cnc2c1c(=O)n(CCCCCn1c(=O)c3c(ncn3C)n(C)c1=O)c(=O)n2C
Return: 5700

---

# Target of assay: UniProt:Q873Y0
# Sequence (Q873Y0 whole entry): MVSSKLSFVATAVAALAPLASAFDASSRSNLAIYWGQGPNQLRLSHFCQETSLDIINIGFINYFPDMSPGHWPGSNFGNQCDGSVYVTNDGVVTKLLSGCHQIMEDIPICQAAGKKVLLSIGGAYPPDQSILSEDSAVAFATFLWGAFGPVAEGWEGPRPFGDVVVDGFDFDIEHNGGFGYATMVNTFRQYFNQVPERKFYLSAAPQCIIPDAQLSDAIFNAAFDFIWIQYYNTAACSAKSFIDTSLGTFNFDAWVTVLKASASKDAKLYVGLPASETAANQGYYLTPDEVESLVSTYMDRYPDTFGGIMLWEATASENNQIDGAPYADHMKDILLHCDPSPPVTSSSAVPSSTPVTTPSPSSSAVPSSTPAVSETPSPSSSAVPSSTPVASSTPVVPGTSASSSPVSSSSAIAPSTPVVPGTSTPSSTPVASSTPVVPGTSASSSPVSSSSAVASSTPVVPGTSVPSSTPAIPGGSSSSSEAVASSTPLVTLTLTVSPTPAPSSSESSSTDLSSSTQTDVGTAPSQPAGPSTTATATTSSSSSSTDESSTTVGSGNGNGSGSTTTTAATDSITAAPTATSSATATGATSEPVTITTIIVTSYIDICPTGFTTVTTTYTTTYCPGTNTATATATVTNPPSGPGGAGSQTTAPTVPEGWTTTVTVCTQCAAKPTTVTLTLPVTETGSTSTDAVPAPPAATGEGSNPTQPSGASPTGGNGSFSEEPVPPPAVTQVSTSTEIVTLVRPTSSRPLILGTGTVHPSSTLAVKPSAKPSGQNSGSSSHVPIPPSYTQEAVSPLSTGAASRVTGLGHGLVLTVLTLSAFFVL
# Measurement description: Inhibition of Aspergillus fumigatus chitinaseA1 using 4-methyumbelliferyl-beta-B-N,N'-triacetylchitotriose as substrate after 10 mins
pIC50: −log10 of the molar value.
Quick reference for pIC50 among some compounds

Cn1cnc2c1c(=O)n(CCCCn1c(=O)c3c(ncn3C)n(C)c1=O)c(=O)n2C [BISDIONIN D] | < 3.00

For the next question, use this compound.
Enquiry: // returns reported pIC50 for input Cn1cnc2c1c(=O)n(CCn1c(=O)c3c(ncn3C)n(C)c1=O)c(=O)n2C [BISDIONIN B]
Return: < 3.00
